The reported numbers originate from patent US10399932B2.

The following molecules are shown together with reported IC50 values.
# measured-target: UniProt P14902
# Sequence (P14902 whole entry): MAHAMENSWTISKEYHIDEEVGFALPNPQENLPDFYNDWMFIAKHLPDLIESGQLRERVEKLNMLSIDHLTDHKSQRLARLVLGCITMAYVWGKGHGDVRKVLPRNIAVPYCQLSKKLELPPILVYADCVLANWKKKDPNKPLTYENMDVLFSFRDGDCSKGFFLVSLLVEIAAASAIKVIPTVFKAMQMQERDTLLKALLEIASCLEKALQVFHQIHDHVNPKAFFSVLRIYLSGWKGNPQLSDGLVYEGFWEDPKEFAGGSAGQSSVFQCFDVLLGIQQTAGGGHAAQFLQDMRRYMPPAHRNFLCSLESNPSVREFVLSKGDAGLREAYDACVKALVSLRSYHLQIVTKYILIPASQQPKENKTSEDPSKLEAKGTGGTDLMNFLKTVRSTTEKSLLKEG
# assay-summary: Assessment of human IDO-1 inhibitory activity in Hela cells (Interferon-gamma activated, Ehrlich reagent, absorbance at 490 nm)
# Type: cell-based
# Design: endogenous in cells; host or cells: HeLa cells stimulated with interferon-gamma
# measurement-parameters: 18 hours
measured-endpoint: IC50

| molecule | measured-endpoint | obs-value |
| --- | --- | --- |
| CCCN(c1ccc(C(COC)CC(=O)O)cc1Nc1ccc(F)cc1)C1CCS(=O)(=O)CC1 (single isomer, unassigned) [Example 186] | IC50 | < 5 nM |
| CCOc1ncc(Nc2cc(C(COC)CC(=O)O)ccc2N2CCOC[C@H]2C(C)C)cn1 (single isomer, unassigned) [Example 938] | IC50 | > 50 nM |
| COCCN(c1ccc(C(COC)CC(=O)O)cc1Nc1ccc(F)cc1)C1CCOCC1 (single isomer, unassigned) [Example 260] | IC50 | < 50 nM |
| CCC(CC(=O)O)c1ccc(N2CCC(C)CC2)c(Nc2ccc(C#N)cc2)c1 (single isomer, unassigned) [Example 41 Enantiomer 2] | IC50 | < 50 nM |
| CCOc1ncc(Nc2cc(C(CC(=O)O)C3CC3)ccc2N2C[C@@H](C)O[C@@H](C)C2)cn1 (single isomer, unassigned) [Example 249] | IC50 | > 50 nM |
| CCOc1ncc(Nc2cc(C(COC)CC(=O)O)ccc2N2CCOC[C@@H]2C(C)C)cn1 (single isomer, unassigned) [Example 935] | IC50 | > 50 nM |
